The origin of these recorded values is patent US11827866B2.

Test system: protease
Assay type: biochemical
Details: pH 9
We label by threshold. Values of Residual activity (4 weeks at 40° C.) strictly beneath 30% are 1. Values of 30% and up are -1.

Illustrative cases are given below, each with its answer.
{"compound": "[Cl-].[Na+] [Sodium Chloride]", "class label": -1}
{"compound": "CC(=O)[O-].[Na+] [Sodium Acetate]", "class label": 1}
{"compound": "N.O=[N+]([O-])O [Armonium Nitrate]", "class label": -1}
{"compound": "O=C([O-])CC(O)(CC(=O)[O-])C(=O)[O-].[Na+].[Na+].[Na+] [Sodium Citrate]", "class label": 1}
{"compound": "O=S(=O)([O-])[O-].[Na+].[Na+] [Sodium Sulfate]", "class label": 1}

Threshold test, Residual activity (4 weeks at 40° C.) < 30%: O=C[O-].[Na+] [Sodium Formiate]
1

###

Test system: protease
Format: biochemical
Details: pH 9
# binarize Residual activity (4 weeks at 40° C.): threshold 40% inclusive, high side t, low side f

{"molecule": "[Cl-].[Cl-].[Mg+2] [Magnesium Chloride]", "class label": "t"}
{"molecule": "[Cl][Al]([Cl])[Cl] [Aluminium Chloride]", "class label": "f"}
{"molecule": "O=S(=O)([O-])[O-].[Mg+2] [Magnesium Sulfate]", "class label": "f"}
{"molecule": "O=C([O-])[O-].[Na+].[Na+] [Sodium Carbonate]", "class label": "f"}

Could you tell me if the measured Residual activity (4 weeks at 40° C.) of O=P(O)(O)O [Sodium Phosphate] reaches 40% or more?
f

Could you tell me if the measured Residual activity (4 weeks at 40° C.) of O=[N+]([O-])[O-].O=[N+]([O-])[O-].[Mg+2] [Magnesium Nitrate] reaches 40% or more?
t

Could you tell me if the measured Residual activity (4 weeks at 40° C.) of Cl.N [Armonium Chloride] reaches 40% or more?
t

Could you tell me if the measured Residual activity (4 weeks at 40° C.) of [Ca+2].[Cl-].[Cl-] [Calcium Chloride] reaches 40% or more?
f

Could you tell me if the measured Residual activity (4 weeks at 40° C.) of [Cl-].[K+] [Potassium Chloride] reaches 40% or more?
f

Could you tell me if the measured Residual activity (4 weeks at 40° C.) of O=[N+]([O-])[O-].[Na+] [Sodium Nitrate] reaches 40% or more?
f

Could you tell me if the measured Residual activity (4 weeks at 40° C.) of N.N.O=S(=O)(O)O [Armonium Sulfate] reaches 40% or more?
t
